B1: VH:VL chains; a variant is named by its letters at X, in order (parent)
chain 1: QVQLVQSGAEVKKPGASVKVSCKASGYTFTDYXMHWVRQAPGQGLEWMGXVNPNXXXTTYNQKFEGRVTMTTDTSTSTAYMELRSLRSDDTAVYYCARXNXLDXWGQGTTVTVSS
chain 2: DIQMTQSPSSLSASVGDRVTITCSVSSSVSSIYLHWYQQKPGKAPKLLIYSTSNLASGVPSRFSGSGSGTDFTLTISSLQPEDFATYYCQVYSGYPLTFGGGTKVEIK

Variants of: B1
Assay: yeast display scFab, FACS + sequencing
Property: non-specific binding call

These recorded examples may help you get a feel for the data.
# Mutation Key, non-specific binding call
rows = [
    ("DTGGGDAY", "no binding"),
    ("SKERGDVA", "no binding"),
    ("YKGKGAWV", "binds"),
    ("VGATSVSF", "binds"),
    ("FRAGSAVV", "binds"),
]

Prompt line: Supply measured non-specific binding call of `VATGDDVY` in your reply.
Response line: no binding

Prompt line: Specify reported non-specific binding call for the variant shown: `DTGTGASD`
Response line: no binding

Prompt line: State its non-specific binding call: `VKEGGDVA`
Response line: no binding

Prompt line: Identify non-specific binding call associated with the variant `FAGTSVGS`
Response line: binds

Prompt line: For `STGTSDVF` , write its non-specific binding call.
Response line: no binding

Prompt line: Specify measured non-specific binding call for `STEEGDWV` .
Response line: no binding

Prompt line: Write down non-specific binding call measured for item `ATTKSDAA`
Response line: no binding

Prompt line: Name the recorded non-specific binding call of the item `VRRRSSLA` in your answer.
Response line: binds

Prompt line: Entry `SGGTGDVF` needs its non-specific binding call filled in; supply it.
Response line: no binding

Prompt line: Give the reported non-specific binding call for this variant. `FTREASAV`
Response line: binds

Prompt line: Quick one: give measured non-specific binding call for `DKATGDAY`
Response line: no binding

Prompt line: Report measured non-specific binding call; entry is `DKGGSDVA`
Response line: no binding
